Where these numbers come from: patent US20100035878A1

pIC50: −log10 of the molar value.
Heads up, these compounds all have pIC50 values measured for JNK3 (Homo sapiens, UniProt P53779).

Exercise: Give recorded pIC50 with JNK3 (Homo sapiens, UniProt P53779) for the following compound: Cn1cc(-c2c[nH]c3ncc(CC4CCN(Cc5ccccc5)CC4)cc23)cn1
Sequence (P53779 whole entry): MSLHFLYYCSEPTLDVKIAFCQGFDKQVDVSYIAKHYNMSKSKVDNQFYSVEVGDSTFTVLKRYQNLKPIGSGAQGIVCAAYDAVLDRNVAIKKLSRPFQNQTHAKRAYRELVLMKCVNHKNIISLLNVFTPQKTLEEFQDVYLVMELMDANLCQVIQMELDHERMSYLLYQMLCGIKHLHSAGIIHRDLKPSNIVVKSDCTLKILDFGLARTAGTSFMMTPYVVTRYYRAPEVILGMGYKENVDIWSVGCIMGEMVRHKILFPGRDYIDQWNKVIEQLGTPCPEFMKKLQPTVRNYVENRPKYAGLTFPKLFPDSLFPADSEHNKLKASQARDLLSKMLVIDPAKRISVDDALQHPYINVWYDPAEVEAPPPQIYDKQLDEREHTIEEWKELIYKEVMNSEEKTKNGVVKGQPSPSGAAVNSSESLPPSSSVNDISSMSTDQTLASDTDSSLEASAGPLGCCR
Key: > 6.70

Exercise: Give recorded pIC50 with JNK3 (Homo sapiens, UniProt P53779) for the following compound: C=CCOc1cnc2[nH]cc(-c3cnn(C)c3)c2c1
Key: > 6.30

Exercise: Give recorded pIC50 with JNK3 (Homo sapiens, UniProt P53779) for the following compound: CCCCCCCc1cnc2[nH]cc(-c3cnn(C)c3)c2c1
Key: > 7.00

Exercise: Give recorded pIC50 with JNK3 (Homo sapiens, UniProt P53779) for the following compound: O=C(Nc1cnc2[nH]cc(-c3ccoc3)c2c1)c1ccc(F)cc1
Key: > 6.30

Exercise: Give recorded pIC50 with JNK3 (Homo sapiens, UniProt P53779) for the following compound: CC(C)Cc1cnc2[nH]cc(-c3cnn(CCN4CCOCC4)c3)c2c1
Key: > 6.30

Exercise: Give recorded pIC50 with JNK3 (Homo sapiens, UniProt P53779) for the following compound: Cc1ccc(Oc2cnc3[nH]cc(-c4cnn(C)c4)c3c2)cc1
Key: > 6.30

Exercise: Give recorded pIC50 with JNK3 (Homo sapiens, UniProt P53779) for the following compound: Cn1cc(-c2c[nH]c3ncc(CC4CCCCC4)cc23)cn1
Key: > 7.00

Exercise: Give recorded pIC50 with JNK3 (Homo sapiens, UniProt P53779) for the following compound: CCCCOc1cnc2[nH]cc(-c3cnn(C)c3)c2c1
Key: > 6.30

Exercise: Give recorded pIC50 with JNK3 (Homo sapiens, UniProt P53779) for the following compound: Cn1cc(-c2c[nH]c3ncc(OCc4ccccc4)cc23)cn1
Key: > 6.30

Exercise: Give recorded pIC50 with JNK3 (Homo sapiens, UniProt P53779) for the following compound: CCCCCOc1cnc2[nH]cc(-c3cnn(C)c3)c2c1
Key: > 6.70

Exercise: Give recorded pIC50 with JNK3 (Homo sapiens, UniProt P53779) for the following compound: CCCCCCOc1cnc2[nH]cc(-c3cnn(C)c3)c2c1
Key: > 6.30
